Fold IC50 vs H3/L3 overview
Target: T1, human CD30 (commercial, conjugated to digoxigenin) (human, UniProt P28908 19-379, limits assumed, conjugated to digoxigenin (DIG))
T1 sequence (looked up): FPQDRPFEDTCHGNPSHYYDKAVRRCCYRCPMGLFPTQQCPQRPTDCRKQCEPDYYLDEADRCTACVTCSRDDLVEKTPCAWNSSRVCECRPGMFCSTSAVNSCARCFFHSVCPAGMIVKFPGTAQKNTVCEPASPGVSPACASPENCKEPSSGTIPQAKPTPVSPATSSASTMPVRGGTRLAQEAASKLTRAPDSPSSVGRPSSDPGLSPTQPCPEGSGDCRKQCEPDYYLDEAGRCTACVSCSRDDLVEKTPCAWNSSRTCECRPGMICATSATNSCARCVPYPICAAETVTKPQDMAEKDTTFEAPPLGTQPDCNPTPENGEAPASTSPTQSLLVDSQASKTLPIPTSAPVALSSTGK
Test: AlphaScreen competition
Response body: numeric value in fold, unit text excluded.

binder	resultUnit	readoutValue
AC10 H3/L3.32 (antibody, IgG1, name in Kabat numbering, V domains shown) VH: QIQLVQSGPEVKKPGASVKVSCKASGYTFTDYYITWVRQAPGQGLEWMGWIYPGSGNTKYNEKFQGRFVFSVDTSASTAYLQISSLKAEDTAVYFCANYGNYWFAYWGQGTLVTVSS VL: DIVLTQSPDSLAVSLGERATINCKASQSVDFDGDSYMNWYQQKPGQPPKSLIYAASNLESGIPARFSGSGSGTDFTLTINSLEAEDAATYYCQQSNEDPWTFGGGTKVEIK	fold	0.32

Field Fold IC50 vs H3/L3 (entry AC10 H3/L3.66 (antibody, IgG1, name in Kabat numbering, V domains shown) VH: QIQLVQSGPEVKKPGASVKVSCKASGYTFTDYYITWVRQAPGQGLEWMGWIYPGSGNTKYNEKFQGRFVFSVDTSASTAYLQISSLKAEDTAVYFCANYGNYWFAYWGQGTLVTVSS VL: DIVLTQSPDSLAVSLGERATINCKASQSVDFDGDSYMNWYQQKPGQPPKVLIYAASNLESGIPARFSGSGSGTDFTLTINSLEAEDAATYYCQQSNEDPITFGGGTKVEIK ) reads 0
